Cited source for all entries: the kinase profiling compilation of Christmann-Franck et al. (2016)

Target or test system: PDGFRB (human)
Protocol summary: KINOMEscan competition binding
Stated conditions: compound 10.0 µM
kinase still bound, per cent of control reference
I only need the number, in %, no unit after it.

The following compounds have reported results that may help.
Given the compound `Cc1cc([C@@H](C)Nc2ccccc2C(=O)O)c2nc(N3CCOCC3)cc(=O)n2c1` , write its reported kinase still bound, per cent of control.
100

Note down kinase still bound, per cent of control recorded for `C=CC(=O)Nc1cccc(Nc2nc(N[C@H]3CC[C@H](N(C)C)CC3)nc3c2ncn3C(C)C)c1`
8.4

Write down kinase still bound, per cent of control measured for item `Cc1ccc(NC(=O)c2cccc(C(C)(C)C#N)c2)cc1Nc1ccc2ncn(C)c(=O)c2c1`
0

For the compound `C[C@@H](Oc1cc(-n2cnc3ccc(CN4CCN(C)CC4)cc32)sc1C(N)=O)c1ccccc1C(F)(F)F` , give its reported kinase still bound, per cent of control.
9.8

Could you please provide reported kinase still bound, per cent of control for `C=CC(=O)Nc1cccc(Oc2nc(Nc3ccc(N4CCN(C)CC4)cc3OC)ncc2Cl)c1` ? Thanks!
11

Continuing:
Dear colleague, please send me the reported kinase still bound, per cent of control for `CN(C)C/C=C/C(=O)Nc1cccc(Nc2ncc3c(n2)N(C)c2ccccc2C(=O)N3C)c1` when you can.
38

Please supply the value of reported kinase still bound, per cent of control for the item `OCCCNc1cc(-c2ccnc(Nc3cccc(Cl)c3)n2)ccn1`
100

Give the reported value of kinase still bound, per cent of control for this record: `N#Cc1c(NC(=O)c2cccc3ccccc23)sc2c1CCCC2`
44

Consider the compound `O=C(O)c1ccc(Nc2ncc3c(n2)-c2ccc(Cl)cc2C(c2c(F)cccc2F)=NC3)cc1` . State its measured kinase still bound, per cent of control.
34

Respond only with kinase still bound, per cent of control recorded for `CCCS(=O)(=O)Nc1ccc(F)c(C(=O)c2c[nH]c3ncc(-c4ccc(Cl)cc4)cc23)c1F`
0.15

Given the compound `CC[C@@H]1C(=O)N(C)c2cnc(Nc3ccc(C(=O)NC4CCN(C)CC4)cc3OC)nc2N1C1CCCC1` , write its reported kinase still bound, per cent of control.
100
